Provenance of the data: PubChem BioAssay (NCI)

# Test system: PC-3 prostate
# assay info: NCI tumour cell line growth inhibition, 48 h; in the data active = GI50 below about 0.43 µM; inactive = the rest
Select the correct class. Options are yes (1) for active, no (0) for inactive and nothing else.

Please review the entries below; each comes with its answer.
[
  {
    "molecule smiles": "CC[C@@]1(O)C(=O)NCc2c1cc1n(c2=O)Cc2cc3ccccc3nc2-1",
    "target or test system": "PC-3 prostate",
    "answer label": "no (0)"
  },
  {
    "molecule smiles": "COc1ccc(N2CCN(C(=O)c3ccccc3Nc3ccnc(C(F)(F)F)c3)CC2)cc1",
    "target or test system": "PC-3 prostate",
    "answer label": "no (0)"
  },
  {
    "molecule smiles": "O=C1c2[nH]cc(CN3CCNCC3)c2C(=O)c2c1c(O)c1ccccc1c2O",
    "target or test system": "PC-3 prostate",
    "answer label": "no (0)"
  },
  {
    "molecule smiles": "CC1(C)N=C(N)N=C(N)N1c1cccc(C#N)c1",
    "target or test system": "PC-3 prostate",
    "answer label": "no (0)"
  },
  {
    "molecule smiles": "COc1ccc(/C=C/c2c(C(=O)/C=C/c3ccc(Cl)cc3)c(C)nc3ccccc23)cc1",
    "target or test system": "PC-3 prostate",
    "answer label": "no (0)"
  },
  {
    "molecule smiles": "O=C1NC(=O)/C(=C/C=C/c2ccccc2)S1",
    "target or test system": "PC-3 prostate",
    "answer label": "no (0)"
  },
  {
    "molecule smiles": "CCSc1oc(-c2ccccc2)nc1[P+](c1ccccc1)(c1ccccc1)c1ccccc1",
    "target or test system": "PC-3 prostate",
    "answer label": "yes (1)"
  },
  {
    "molecule smiles": "CCCCCCCCCCCCn1c(C)nc2ccccc21",
    "target or test system": "PC-3 prostate",
    "answer label": "no (0)"
  }
]

IN: Recorded test call requested for CN(C)CCCNc1nn2c(=O)c3ccccc3nc2c2ccccc12
OUT: no (0)

IN: Recorded test call requested for Cn1nc(C(F)(F)F)c(-c2ccc(Cl)c(C(F)(F)F)c2)c1-c1ccc(OCc2ccc(Cl)cc2)cc1O
OUT: no (0)
